system: NIH/3T3 cells; assay: Cell proliferation assay (MTS), NIH/3T3; assay type: cell-based; details: Mus musculus, NIH3T3; Table 3; read-out: GI50 (μM) NIH 3T3
Flag rule - GI50 less than 3 µM flags 1; the remaining entries get -1.

{"columns": ["compound", "class"],
 "data": [
  ["CCCOc1ccccc1C1CC(=O)Nc2cc3c(cc21)OCO3 (stereo not drawn)", 1],
  ["CCOc1ccccc1-c1cc(=O)[nH]c2cc3c(cc12)OCO3", 1],
  ["CCCCOc1ccccc1C1CC(=O)Nc2cc3c(cc21)OCO3 (stereo not drawn)", 1],
  ["COc1ccccc1C1CC(=O)Nc2cc3c(cc21)OCO3 (stereo not drawn)", -1],
  ["CCOc1ccccc1[C@H]1CC(=O)Nc2cc3c(cc21)OCO3 [(S)-FQI1]", 1]
]}
